- TEST SYSTEM: BCL2 WT (Homo sapiens (Human))
- Sequence (P10415 other isoform, or with tags, fused parts or gaps): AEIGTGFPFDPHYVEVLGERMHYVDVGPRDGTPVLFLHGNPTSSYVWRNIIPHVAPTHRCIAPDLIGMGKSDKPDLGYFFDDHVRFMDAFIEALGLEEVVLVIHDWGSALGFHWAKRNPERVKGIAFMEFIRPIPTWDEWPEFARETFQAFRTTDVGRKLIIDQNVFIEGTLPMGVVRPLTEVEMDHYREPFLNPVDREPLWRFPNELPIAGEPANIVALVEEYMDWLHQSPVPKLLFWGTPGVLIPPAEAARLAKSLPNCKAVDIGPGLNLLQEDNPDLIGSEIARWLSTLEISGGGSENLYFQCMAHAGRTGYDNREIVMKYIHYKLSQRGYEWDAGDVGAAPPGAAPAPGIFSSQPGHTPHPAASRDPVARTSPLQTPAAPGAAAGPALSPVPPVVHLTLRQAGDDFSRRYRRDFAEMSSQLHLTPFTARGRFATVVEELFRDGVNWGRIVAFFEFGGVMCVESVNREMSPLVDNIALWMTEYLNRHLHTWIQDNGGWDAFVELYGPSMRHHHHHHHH
- TEST PROTOCOL: TR-FRET competitive binding assay, BCL2 WT
- RUN PARAMETERS: Ki determined from IC50, read-out: TR_FRET EKI_Bcl2 WT
PARAMETER: pKi
Worth noting: pKi values are minus log10 of concentrations stated in mol/L.

Recorded pKi (molecule Cc1c(C(=O)N(c2ccccc2)c2cnn(C)c2)cc(-c2cc3c(cc2C(=O)N2Cc4ccccc4C[C@H]2C)CN(C(=O)Cc2cccc(N4CC5(CN(C)C5)C4)c2)CC3)n1C [Example 217] ): 10.70

Recorded pKi (molecule Cc1c(N(C(=O)c2cc(-c3cc4c(cc3C(=O)N3Cc5ccccc5C[C@H]3CN3CCCC3)CN(C(=O)Cc3ccc(OCCN(C)C5CC5)cc3F)CC4)n(C)c2C)c2ccc(O)cc2)cc(C#N)n1C [Example 101] ): 10.70

Recorded pKi (molecule Cc1c(C(=O)N(c2ccccc2)c2cc(C#N)n(CCO)c2C)cc(-c2cc3c(cc2C(=O)N2Cc4ccccc4C[C@H]2C)CN(C(=O)Cc2ccccc2)CC3)n1C [Example 4] ): 9.96

Recorded pKi (molecule Cc1c(N(C(=O)c2cc(-c3cc4c(cc3C(=O)N3Cc5ccccc5C[C@H]3CN3CCC5(CC3)CC5)CN(C(=O)Cc3ccc(OCCN5CCOCC5)cc3F)CC4)n(C)c2C)c2ccc(O)cc2)cc(C#N)n1C [Example 126] ): 9.92

Recorded pKi (molecule Cc1c(C(=O)N(c2ccccc2)c2cnn(C(F)F)c2)cc(-c2cc3c(cc2C(=O)N2Cc4ccccc4C[C@H]2CF)CN(C(=O)Cc2ccc(OCCN4CCOCC4)cc2)CC3)n1C [Example 211] ): 10.15

Recorded pKi (molecule Cc1c(N(C(=O)c2cc(-c3cc4c(cc3C(=O)N3Cc5ccccc5C[C@H]3CN3CCCCC3)CN(C(=O)Cc3ccc(OCCN5CCOCC5(C)C)cc3)CC4)n(C)c2C)c2ccc(O)cc2)cc(C#N)n1C [Example 148] ): 10.22

Recorded pKi (molecule Cc1c(N(C(=O)c2cc(-c3cc4c(cc3C(=O)N3Cc5ccccc5C[C@H]3C)CN(C(=O)Cc3ccc(C5CCN(CC(F)F)CC5)cc3F)CC4)n(C)c2C)c2ccc(O)cc2)cc(C#N)n1C [Example 48] ): 9.30

Recorded pKi (molecule Cc1c(N(C(=O)c2cc(-c3cc4c(cc3C(=O)N3Cc5ccccc5C[C@H]3CCN3CCCCC3)CN(C(=O)Cc3ccc(OCCN5CCOCC5)cc3F)CC4)n(C)c2C)c2ccc(O)cc2)cc(C#N)n1C [Example 74] ): 10.70

Recorded pKi (molecule Cc1c(N(C(=O)c2cc(-c3cc4c(cc3C(=O)N3Cc5ccccc5C[C@H]3CN3CCC[C@H](C)C3)CN(C(=O)Cc3ccc(OCCN(C)C5CC5)cc3)CC4)n(C)c2C)c2ccc(O)cc2)cc(C#N)n1C [Example 139] ): 9.92

Recorded pKi (molecule COc1ccc(N(C(=O)c2cc(-c3cc4c(cc3C(=O)N3Cc5ccccc5C[C@H]3C)CN(C(=O)Cc3ccc(OCCN5CCOCC5)cc3F)CC4)n(C)c2C)c2ccccc2)cn1 [Example 192] ): 10.40

---

PARAMETER: Ki (nM)
The figure you give is taken to be in nM; do not add the unit.

Field Ki (system: BCLXL WT (Homo sapiens (Human))) for entry `Cc1c(N(C(=O)c2cc(-c3cc4c(cc3C(=O)N3Cc5ccccc5C[C@H]3C)CN(C(=O)Cc3ccc(OCCN5CCOCC5)cc3Cl)CC4)n(C)c2C)c2ccc(O)cc2)cc(C#N)n1C` = 1.5

Field Ki (system: BCLXL WT (Homo sapiens (Human))) for entry Cc1c(N(C(=O)c2cc(-c3cc4c(cc3C(=O)N3Cc5ccccc5C[C@H]3C)CN(C(=O)Cc3ccc(OCCN5CCOC(C)C5)cc3F)CC4)n(C)c2C)c2ccc(O)cc2)cc(C#N)n1C (single isomer, unassigned) = 1.4

Field Ki (system: BCLXL WT (Homo sapiens (Human))) for entry `Cc1c(N(C(=O)c2cc(-c3cc4c(cc3C(=O)N3Cc5ccccc5C[C@H]3C)CN(C(=O)Cc3ccc(CCN5CCC(F)(F)CC5)cc3)CC4)n(C)c2C)c2ccc(O)cc2)cc(C#N)n1C` = 4.4
